Reference for the values: paper PMC10877290

Protein target, amino acids: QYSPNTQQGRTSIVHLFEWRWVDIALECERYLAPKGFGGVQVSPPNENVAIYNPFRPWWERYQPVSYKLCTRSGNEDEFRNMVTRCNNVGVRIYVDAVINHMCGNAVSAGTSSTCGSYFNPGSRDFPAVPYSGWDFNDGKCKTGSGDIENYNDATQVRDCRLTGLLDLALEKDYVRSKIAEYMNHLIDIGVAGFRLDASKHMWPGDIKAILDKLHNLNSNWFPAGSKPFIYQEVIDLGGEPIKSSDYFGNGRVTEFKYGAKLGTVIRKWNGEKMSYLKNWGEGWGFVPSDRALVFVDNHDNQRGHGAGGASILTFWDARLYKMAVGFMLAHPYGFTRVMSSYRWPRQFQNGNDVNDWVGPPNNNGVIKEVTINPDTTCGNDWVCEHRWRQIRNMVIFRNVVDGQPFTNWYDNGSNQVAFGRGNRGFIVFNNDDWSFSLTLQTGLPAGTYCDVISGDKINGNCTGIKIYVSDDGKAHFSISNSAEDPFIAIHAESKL
pKi: −log10 of the molar value.

{"columns": ["compound", "pKi"],
 "data": [
  ["Cc1cccc(C[C@@H]2C[C@H]3C(=O)N(C)[C@@]4(C[C@H](C)CC[C@H]4C(C)C)N3O2)c1OCC(=O)N/N=C1\\C(=O)Nc2c(Cl)cccc21 [5d]", 4.56]
]}
